Where do the numbers come from? From paper doi:10.1101/2025.07.21.665923.

- TEST TARGET: T1, full-length human PDZK1 (NHE3 regulatory factor 3, NHERF3) (human, UniProt Q5T2W1 1-519)
- T1 sequence (looked up): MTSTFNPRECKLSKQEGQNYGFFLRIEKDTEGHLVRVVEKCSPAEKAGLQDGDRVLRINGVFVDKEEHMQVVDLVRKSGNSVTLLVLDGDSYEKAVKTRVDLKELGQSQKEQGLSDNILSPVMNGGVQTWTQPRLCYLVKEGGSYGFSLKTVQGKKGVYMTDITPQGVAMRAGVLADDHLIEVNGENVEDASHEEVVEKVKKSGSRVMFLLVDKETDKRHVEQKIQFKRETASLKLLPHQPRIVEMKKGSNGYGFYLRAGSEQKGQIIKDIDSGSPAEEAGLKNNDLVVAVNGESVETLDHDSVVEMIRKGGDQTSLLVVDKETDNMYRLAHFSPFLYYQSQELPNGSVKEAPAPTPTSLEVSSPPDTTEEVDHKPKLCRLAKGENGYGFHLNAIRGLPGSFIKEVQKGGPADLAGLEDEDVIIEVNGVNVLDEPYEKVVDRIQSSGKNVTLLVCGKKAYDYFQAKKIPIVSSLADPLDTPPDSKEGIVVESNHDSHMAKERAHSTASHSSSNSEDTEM
- PROTOCOL: fluorescence polarisation
Where no end group is shown, it is not given here. TAMRA = tetramethylrhodamine
READOUT KIND: pKd
Hey, just a heads up that pKd is the negative log base 10 of the concentration in molar.

Look up pKd: {TAMRA}-SPRLALPAHHNATRL [NaPi-IIa peptide (15 C-terminal residues of NaPi-IIa), TAMRA-labelled]
5.09
